# Tested on: CD2F1 mice, L1210 leukemia sc, survival T/C
# assay summary: NCI In Vivo Anticancer Drug Screen. Data for tumor model L1210 Leukemia (subcutaneous) in CD2F1 (CDF1) mice
# run parameters: endpoint: median survival time; dose: 8.4 mg/kg/injection; schedule: Q01DX Z (sc); vehicle: water
Inconclusive results and toxic doses are left out. The calls were made as follows: active = survival T/C of 150% or more; inactive = T/C below 125% in these data.
Bench note: report the call from Y (active), N (inactive)

Query: recorded result category for O=C(Nc1ccc(NC2=NCCN2)cc1)c1cccc(C(=O)Nc2ccc(NC3=NCCN3)cc2)c1 in this test
N

Each compound tested received a call. Report the one for Nc1cc(C(=O)Nc2ccc(C3=NCCN3)cc2)ccc1C(=O)Nc1ccc(C2=NCCN2)cc1 .
Y

Lab log entry: N=C(N)Cc1ccc(NC(=O)c2ccc(C(=O)Nc3ccc(CC(=N)N)cc3)cc2)cc1 — outcome as called in the assay?
N

What was the test verdict on O=C(Nc1ccc(C2=NCCN2)cc1)c1cccc(C(=O)Nc2ccc(C3=NCCN3)cc2)c1 ?
Y

Would you mind telling me which call this test gave CC1CN=C(c2ccc(NC(=O)c3ccc(C(=O)Nc4ccc(C5=NCC(C)N5)cc4)cc3)cc2)N1 (stereo unspecified) ?
Y

Given C[n+]1c2ccccc2nc2c(N)cc(N)cc21 , state the outcome it received in this test.
N

All figures here come from PubChem BioAssay AID258.
